Ref: the Human Domainome abundance scans (Beltran et al. 2025)

B1: Histone-lysine N-methyltransferase SETD2, residues 2382 to 2430; numbered along this chain, Q9BYW2 (parent)
chain: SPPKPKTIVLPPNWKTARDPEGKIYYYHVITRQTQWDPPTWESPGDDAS

Variants of: B1
Test: abundance fitness (aPCA) (normalised: wild type 0, dead -1); higher = more abundant; growth selection in yeast, the domain comes from the species named
Settings: Homo sapiens
abundance fitness: recorded values
// return a plain number; no unit text

P20F	-0.398
Q33H	-0.578
D47N	-0.241
P44K	-0.128
T16Y	-0.164

Problem: Which abundance fitness is reported for this variant? "Y26C"
Result: -0.853

Problem: Which abundance fitness is reported for this variant? "Y26D"
Result: -0.553

Problem: Which abundance fitness is reported for this variant? "D47K"
Result: -0.16
